Target: T1, MBP-tagged split mFAP fragment m14
T1 chain: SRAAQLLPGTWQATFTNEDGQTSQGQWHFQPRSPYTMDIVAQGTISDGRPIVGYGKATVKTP
Assay: other fluorescence titration; MBP-tagged fragment titrated into its complementary MBP-tagged fragment; 25.0 uM DFHBI-1T; high-salt Tev cleavage buffer (25.0 mM Tris, 100 mM NaCl, pH 8.00); ex 468 nm, em 530 nm; estimated Kd, signal did not plateau
Conditions: both partners purified
No end group written: not given here.
Reported Endpoint: Kd

Look up Kd for this binder: MBP-tagged split mFAP fragment m58 (domain or fragment, not fully specified) DTLDIDITYPSLGNIKAQGQITMDSPTQFKWDATTKGENDFHGRLTGTLQRQE
≥ 22 µM
